Biological target: T1, human calcitonin receptor (human, UniProt P30988 25-474)
T1 sequence (looked up): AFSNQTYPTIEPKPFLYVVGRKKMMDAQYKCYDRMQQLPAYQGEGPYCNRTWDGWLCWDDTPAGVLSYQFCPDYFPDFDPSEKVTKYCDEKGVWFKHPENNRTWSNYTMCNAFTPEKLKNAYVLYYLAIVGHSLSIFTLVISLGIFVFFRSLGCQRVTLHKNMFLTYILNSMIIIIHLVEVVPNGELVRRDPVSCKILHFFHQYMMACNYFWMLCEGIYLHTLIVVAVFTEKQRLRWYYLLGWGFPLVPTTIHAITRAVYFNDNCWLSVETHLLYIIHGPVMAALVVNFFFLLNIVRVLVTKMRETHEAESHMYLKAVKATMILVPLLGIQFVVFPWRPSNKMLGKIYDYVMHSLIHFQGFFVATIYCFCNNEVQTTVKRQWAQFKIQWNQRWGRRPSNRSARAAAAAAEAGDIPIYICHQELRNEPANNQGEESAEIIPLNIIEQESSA
Assay: cell-based or functional assay
Numbered stars: 1 amine (or outer) side, 2 acyl side, 3 side chain; on linkers, the order of the positions; unused ones are H or OH. Bridge positions count the residues as written; N and C are the ends. Square brackets hold non-standard residues; d marks the D form. Side chains are listed from the residue outwards. Ends that are not written are not given here. * marks the point of attachment. C20 diacid = O=C(O)CCCCCCCCCCCCCCCCCCC(=O)*; γGlu = O=C(O)[C@H](CCC(=O)[*:2])N[*:1]
QUANTITY NAME: hCTR funct. EC50 (pM)

K([γGlu-C20 diacid])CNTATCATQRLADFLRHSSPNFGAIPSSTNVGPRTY-NH2 (disulfide 2-7 (inferred)) ... 3640

I: K([γGlu-γGlu-C20 diacid])CNTATCATQRLA[dD]FLRHSSPNFGAIPSSTNVGSRTY-NH2 (disulfide 2-7 (inferred))
II: K([γGlu-γGlu-C20 diacid])CNTATCATQRLAEFLRHSSPNFGAIPSSTNVGPNTF-NH2 (disulfide 2-7 (inferred))
Q: # return whichever of I and II has the smaller hCTR funct. EC50 (pM) Answer by stating the label of the chosen item.
Result: II
(II: 2140 pM, I: 100000 pM)
